Where these numbers come from: patent US7138525B2

ASSAY: Brain/cerebrospinal fluid transport test
Format: in vivo
REPORTED CONDITIONS: rat, plasma; male SD rats, 2 hours after oral administration (10 mg/kg); read-out: concentration in the plasma

>  <MOLECULE>
C[C@@H]1NC(c2ccc(=O)n(C(F)F)c2)=NC1(c1ccc(F)cc1)c1ccc(C(F)(F)F)nc1 (single isomer, unassigned)

>  <UNIT SYMBOL>
µM

>  <concentration at 2 h>
3.17

$$$$
